Test system: MDA-MB-468 breast
Assay: NCI tumour cell line growth inhibition, 48 h
measured attribute: GI50

CC(C)(C)OC(=O)CC(S(=O)(=O)c1ccccc1)S(=O)(=O)c1ccccc1 : 1710 nM
Nc1nc2c([nH]1)c1[nH]c3ccccc3c1c1[nH]c3ccccc3c21 : 2020 nM
Cn1cc(C2=C(c3cccc([N+](=O)[O-])c3)C(=O)NC2=O)c2ccccc21 : 5850 nM

--- query ---
Query: Need GI50 of CC(=O)CCN1CC2CN=NC2(C#N)C1 (centres undefined) , thanks.
Reply: > 100000 nM

* * *

Tested on: MDA-MB-468 breast
Experiment: NCI tumour cell line growth inhibition, 48 h; in the data active = GI50 below about 0.43 µM; inactive = the rest
Could you please pick one outcome from this set? active, inactive

Solved cases below.
CN1CCC(C(=O)Nc2n[nH]c3nnc(-c4ccccc4)cc23)CC1 : inactive
O=C(Nc1ccc(-n2cc(-c3ccncc3)c(-c3ccc(Cl)c(O)c3)n2)cc1)c1ccc(Cl)c(Cl)c1 : inactive
COc1cc(C(=O)Nc2ccc(-c3nc4ccccc4[nH]3)cc2)cc(OC)c1OC : inactive
COc1ccc(-c2nc3sccn3c2/C=C/C(=O)c2cc(OC)c(OC)c(OC)c2)cc1 : inactive

We now examine a further compound.
Query: Fill in: this test's call for COc1ccccc1CNCCCN1C(=O)c2ccc3c4c(ccc(c24)C1=O)C(=O)N(CCCNCCCCN)C3=O is ___
Reply: active

* * *

Kindly state TGI for each of the entries shown.
Tested on: MDA-MB-468 breast
Test: NCI tumour cell line growth inhibition, 48 h
Numbers only, in µM.

The examples below pair each entry with its known result.
COc1cc2c(cc1OC)C(Sc1ccc(Cl)cc1)c1c(nc(N)c(C#N)c1N)O2 (configuration not stated) : 2.7
CNc1ccc(CSc2ccc(C)cc2)cc1 : 9.9
CCCCCCC1CCCCN1C(c1ccccc1)C(O)c1ccccc1 (configuration not stated) : 14.4

Batch: TGI for all items listed.
1. CCOC(=O)c1sc(N/N=C(\C)c2ccc3c(c2)Nc2ccccc2S3)nc1C
2. COc1cc(C(=O)/C=C/c2c(C)n([O-])c3ccc(Cl)cc3[n+]2=O)cc(OC)c1OC
3. Cc1ncc([N+](=O)[O-])n1CCOc1ccc(C(=O)/C=C/c2ccc(C(F)(F)F)cc2)cc1
4. C=C(c1ccc(C(=O)NCCCn2ccnc2)cc1)c1cc2c(cc1C)C(C)(C)CCC2(C)C

Reply:
[15.1, 19.3, 21.8, 3.24]

* * *

Kindly state GI50 for each of the entries shown.
System: MDA-MB-468 breast
Test: NCI tumour cell line growth inhibition, 48 h

Cc1ncc([N+](=O)[O-])n1CCOc1ccc(C(=O)/C=C/c2ccc(C(F)(F)F)cc2)cc1 : 3920 nM
CCOC(=O)c1sc(N/N=C(\C)c2ccc3c(c2)Nc2ccccc2S3)nc1C : 3450 nM
COc1csc(/C=N/NC(=O)c2[nH]c3ccc(Br)cc3c2-c2ccccc2)c1 : 23.2 nM

Query: Need GI50 of C#CCN(CCCOc1ccc(Cl)cc1Cl)CCCSC(=O)CCCCCN1/C(=C\C=C2/CCCC(/C=C/C3=[N+](CCCCCC(=O)[O-])c4ccccc4C3(C)C)=C2Cl)C(C)(C)c2ccccc21 , thanks.
Reply: 1350 nM

* * *

Kindly state TGI for each of the entries shown.
Test system: MDA-MB-468 breast
Assay: NCI tumour cell line growth inhibition, 48 h
Record the result as number plus unit.

The examples below pair each entry with its known result.
COc1cc(/C=C/C(=O)/C=C/c2ccc(-n3ccnc3)cc2)ccc1O : 5.36 µM
Cc1nc2sc(C(=O)Nc3cccc(Cl)c3)c(N)c2cc1C(O)c1ccccc1 (stereo not given) : 20.1 µM

Batch: TGI for all items listed.
1. COc1cc(-c2ccc[nH]2)[nH]c1/C=C1\N=C(C)C(C(=O)NC(C)C)=C1C
2. COc1ccccc1CNCCCN1C(=O)c2ccc3c4c(ccc(c24)C1=O)C(=O)N(CCCNCCCCN)C3=O
3. CN(C)CC(=O)N1CCc2c([nH]c3ccccc23)C1c1cccnc1 (stereo not given)

Reply:
["16.8 µM", "0.231 µM", "52.9 µM"]
